Where do these numbers come from? They come from PubChem BioAssay (NCI).

For each of the compounds below, state its growth.
# Tested on: MALME-3M melanoma
# method_description: NCI-60 one-dose screen, 48 h (100 = growth as untreated, 0 = no growth, -100 = all killed)
# reported_conditions: 10 µM
Compounds without any hit were thinned out: in the full panel of roughly 83,000, 20% have a hit. Calls of active or inactive are those of the source. Rule for the calls: active = growth percent below 10; inactive = the rest.

O=C(/C=C/c1ccco1)c1nc2ccccc2n1Cc1ccc(F)cc1
59.9% (inactive)
COC(=O)C[C@](O)(CCC(C)C)C(=O)O[C@H]1C(OC)=C[C@@]23CCCN2CCc2cc4c(cc2[C@@H]13)OCO4
-45.1% (active)
C[C@H]1[C@H](OC(=O)CCC(=O)N(CCCc2cn(-c3ccc(C#N)cc3)nn2)CCNc2ccnc3cc(Cl)ccc23)O[C@@H]2OC3(C)CC[C@H]4[C@H](C)CC[C@@H]1[C@@]24OO3
13.3% (inactive)

Quick batch: growth for everything below.
1. COc1cc(OC)c(/C=C/C(=O)c2nc3ccccc3n2Cc2ccc(F)cc2)c(OC)c1
2. CC1=C2C(=C[C@@](C)(COP(=O)(Oc3ccccc3)Oc3ccccc3)[C@@H]2O)C(=O)[C@@](C)(O)C12CC2
3. CCOP(=O)(CC(F)(F)C(F)(F)F)OCC
4. COC(=O)C[C@](O)(CCCC(C)C)C(=O)O[C@H]1C(OC)=C[C@@]23CCCN2CCc2cc4c(cc2[C@@H]13)OCO4
5. O=C(/C=C/c1ccccc1)c1nc2ccccc2n1Cc1ccc(Br)cc1
6. CC1=C(C=O)C2=C(C)C3(CC3)[C@@](C)(O)C(=O)C2=C1
7. O=C(/C=C/c1ccc(F)cc1)c1nc2ccccc2n1Cc1ccc(Br)cc1

1. 105% (inactive)
2. -96.7% (active)
3. -70.4% (active)
4. -38.5% (active)
5. -64.7% (active)
6. 1.71% (active)
7. -77.9% (active)

Quick one: give me growth for each item below, same order please.
1. CC1=C(COCCOC(=O)c2ccc(S(=O)(=O)F)cc2)C2=C(C)C3(CC3)[C@@](C)(O)C(=O)C2=C1
2. O=C(/C=C/c1ccc(Cl)cc1)c1nc2ccccc2n1Cc1ccc(Br)cc1
3. CC(C)N=C([Se])NC(=O)c1cccs1

["-78.2% (active)", "71.5% (inactive)", "102% (inactive)"]

====

# Test system: A549/ATCC NSCLC
# method_description: NCI-60 one-dose screen, 48 h (100 = growth as untreated, 0 = no growth, -100 = all killed)
# reported_conditions: 10 µM
# Protocol: Growth inhibition of the A549/ATCC human Non-Small Cell Lung tumor cell line is measured as a screen for anti-cancer activity. Cells are grown in 96 well plates and exposed to the test compound for 48 hours. Compounds are tested at a single concentration, which is 10^-5 M for most compounds. The reported endpoint is percent growth (GI% or GIPRCNT), where numbers from 0 - 100% represent growth inhibition, and numbers from -100% - 0 represent cell death. […]
About 83,000 compounds went through this panel and 20% of them were active in at least one assay; those are over-represented in the sample as a whole.
measured_parameter: growth (%)
One number for each entry, in %.

Before answering, review these 2 worked examples.
COC(=O)c1ccc(-n2cc(CCCN(CCNc3ccnc4cc(Cl)ccc34)C(=O)CCC(=O)O[C@@H]3O[C@@H]4OC5(C)CC[C@H]6[C@H](C)CC[C@@H]([C@H]3C)[C@@]46OO5)nn2)cc1
44.4
CCOP(=O)(OCC)C(NC(C)=O)C(=O)SCCN (stereo not given)
107

Fill in growth for each of the 5 compounds listed.
1. O=C(/C=C/c1ccc(F)cc1)c1nc2ccccc2n1Cc1ccc(F)cc1
2. COCCOCCOCCOc1ccc(-n2cc(-c3ccc(O[C@H]4O[C@@H]5OC6(C)CC[C@H]7[C@H](C)CC[C@@H]([C@H]4C)[C@@]57OO6)cc3)nn2)cc1
3. CC[C@]12C=CCN3CC[C@@]4(c5ccc(OC)cc5N(C)[C@H]4[C@@](O)(C(=O)OC)[C@@H]1OC(=O)CCCC[P+](c1ccc(C)cc1)(c1ccc(C)cc1)c1ccc(C)cc1)[C@@H]32
4. COP(=O)(CC(F)(F)C(F)(F)F)OC
5. CC12OOC(C)(OO1)C2CCC(=O)OCCNc1ccnc2cc(Cl)ccc12 (stereo not given)

1: 27.2; 2: 60.1; 3: -92.2; 4: 87.4; 5: 9.38

Batch of 4 compounds: report growth for each.
1. O=C(/C=C/c1cccc(Br)c1)c1nc2ccccc2n1Cc1ccc(F)cc1
2. CC(=O)Oc1ccccc1C(=O)NC([Se])=NC1CCCCC1
3. O=C(NC([Se])=NC1CCCCC1)c1ccc2c(c1)OCO2
4. COc1cc2cc(C(=O)N3C[C@@H](CCl)c4c3cc(OC(=O)N3CCN(C(=O)CCC(=O)N5CCN(C)CC5)[C@@H]5CSSC[C@@H]53)c3ccccc43)[nH]c2c(OC)c1OC

52.2
20.4
26.8
-59.7

List the reported growth of each compound below.
1. O=C(/C=C/c1ccc(Cl)cc1)c1nc2ccccc2n1Cc1ccc(Br)cc1
2. O=C(NC([Se])=NC1CCCCC1)c1ccccc1
3. COc1cc(OC)c(S(=O)(=O)N(CCCl)CCCl)cc1C(=O)/C=C/c1ccc(C)cc1
4. O=C([Se]C1C=CCCC1)c1ccc(C(=O)[Se]C2C=CCCC2)s1 (stereo not given)
5. COC(=O)C[C@](O)(CCC(C)C)C(=O)O[C@H]1C(OC)=C[C@@]23CCCN2CCc2cc4c(cc2[C@@H]13)OCO4

73.4
21.1
79.2
-7.22
-20.5

Batch lookup, growth per entry.
1. COc1cc2cc(C(=O)N3C[C@@H](CCl)c4c3cc(OC(=O)N3CCN(C)[C@@H]5CSSC[C@@H]53)c3ccccc43)[nH]c2c(OC)c1OC
2. C[C@H]1[C@@H](CC(=O)N[C@@H](Cc2coc3ccccc23)B(O)O)O[C@@H]2OC3(C)CC[C@H]4[C@H](C)CC[C@@H]1[C@@]24OO3
3. N#C[Se]CC(=O)Nc1cccc(C(F)(F)F)c1

7.2
19.1
-50.4

Look at this compound and give its reported growth. COCCOCCOCCOc1ccc(-n2cc(CCCN(CCNc3ccnc4cc(Cl)ccc34)C(=O)CCC(=O)O[C@@H]3O[C@@H]4OC5(C)CC[C@H]6[C@H](C)CC[C@@H]([C@H]3C)[C@@]46OO5)nn2)cc1
46.1
